This collection of values is drawn from ChEMBL document CHEMBL3091427.

assay: Total blood clearance in iv dosed rat after 1 hr; format: ADME, organism-based; details: whole blood
observable: clearance
Form entry: enter the amount, then its unit.

Record O=C(N1CCOCC1)N1CCC(Oc2ccc3c(c2)CCN(C2CCC2)CC3)CC1 , field clearance: 3.78 L/h/kg

----------
Reported IC50 values, Cytochrome P450 2D6 (Homo sapiens).
One number for each entry, in nM.

Before answering, review these 4 worked examples.
1. c1ccc(COc2ccc3c(c2)CCN(CC2CC2)CC3)cc1	1500
2. Cc1cc(C(=O)N2CCC(Oc3ccc4c(c3)CCN(C3CCC3)CC4)CC2)no1	43000
3. c1ccc(COc2ccc3c(c2)CCN(C2CCCC2)CC3)cc1	600
4. Cn1c(=O)ccc2cc(COc3ccc4c(c3)CCN(C3CCC3)CC4)ccc21	4200

Provide the reported IC50 of each entry below, same order.
1. CS(=O)(=O)N1CCC(Oc2ccc3c(c2)CCN(C2CCC2)CC3)CC1
2. c1ccc(COc2ccc3c(c2)CCN(C2CCC2)CC3)cc1

Ans:
1. 13000
2. 600

----------
biological target: UniProt Q9Y5N1; assay: Antagonist activity at human histamine H3 receptor expressed in CHOK1 cells assessed as inhibition of GTPgammaS binding by scintillation proximity assay; type: functional, cell-based, CHO-K1
observable: Ki (nM)
Give bare numbers, in nM.

Before answering, review these 2 worked examples.
1) c1ccc(N2CCc3ccc(OCCCN4CCCCC4)cc3CC2)cc1	10
2) c1ccc(COc2ccc3c(c2)CCN(C2CC2)CC3)cc1	5.01

Provide the reported Ki of each entry below, same order.
1. c1cc2c(cc1OCCCN1CCCCC1)CCN2
2. Cc1cc(C(=O)N2CCC(Oc3ccc4c(c3)CCN(C3CCC3)CC4)CC2)no1
3. CC(=O)N1CCc2ccc(OCCCN3CCCCC3)cc2CC1
4. c1ccc(COc2ccc3c(c2)CCN(C2CCCCC2)CC3)cc1
5. c1cc2c(cc1OCC1CCNCC1)CCN(C1CCC1)CC2
6. CS(=O)(=O)N1CCC(Oc2ccc3c(c2)CCN(C2CCC2)CC3)CC1

Ans:
1: 15.8; 2: 1.58; 3: 15.8; 4: 10; 5: 0.501; 6: 0.794

Provide the reported Ki of each entry below, same order.
1. CC(C)N1CCC(Oc2ccc3c(c2)CCNCC3)CC1
2. c1ccc(COc2ccc3c(c2)CCN(C2CCCC2)CC3)cc1

Ans:
1: 2.51; 2: 0.794

Provide the reported Ki of each entry below, same order.
1. Cn1c(=O)ccc2cc(COc3ccc4c(c3)CCN(C3CCC3)CC4)ccc21
2. c1ccc(COc2ccc3c(c2)CCN(CC2CC2)CC3)cc1
3. c1cc2c(cc1OCCCN1CCCCC1)CCN(CC1CC1)CC2
4. c1cc2c(cc1OC1CCNCC1)CCN(C1CCC1)CC2
5. O=C(N1CCOCC1)N1CCC(Oc2ccc3c(c2)CCN(C2CCC2)CC3)CC1
6. O=C(N[C@H]1CCN(Cc2ccc(OCCCN3CCCCC3)cc2)C1)c1ccc2c(c1)OCO2
7. c1cc2c(cc1OCCCN1CCOCC1)CCNCC2
8. c1cc2c(cc1OCCCN1CCCCC1)CCNCC2

Ans:
0.398
10
0.501
0.316
1
0.0251
100
3.98

Provide the reported Ki of each entry below, same order.
1. CC(C)N1CCc2ccc(OCc3ccccc3)cc2CC1
2. c1cc2c(cc1OCCCN1CCCCC1)CCNC2
3. O=C(c1ccc(Cl)cc1)N1CCC(Oc2ccc3c(c2)CCN(C2CCC2)CC3)CC1
4. c1cc2c(cc1OCCN1CCCCC1)CCN(CC1CC1)CC2
5. c1ccc(COc2ccc3c(c2)CCN(C2CCC2)CC3)cc1
6. CC(C)CN1CCc2ccc(OCc3ccccc3)cc2CC1

Ans:
1. 20
2. 2.51
3. 0.501
4. 0.794
5. 0.251
6. 25.1

----------
biological target: Histamine H1 receptor (Homo sapiens); experiment: Antagonist activity at human recombinant histamine H1 receptor expressed in CHO cells assessed as inhibition of histamine-induced effect by FLIPR assay
Sequence (P35367 whole entry): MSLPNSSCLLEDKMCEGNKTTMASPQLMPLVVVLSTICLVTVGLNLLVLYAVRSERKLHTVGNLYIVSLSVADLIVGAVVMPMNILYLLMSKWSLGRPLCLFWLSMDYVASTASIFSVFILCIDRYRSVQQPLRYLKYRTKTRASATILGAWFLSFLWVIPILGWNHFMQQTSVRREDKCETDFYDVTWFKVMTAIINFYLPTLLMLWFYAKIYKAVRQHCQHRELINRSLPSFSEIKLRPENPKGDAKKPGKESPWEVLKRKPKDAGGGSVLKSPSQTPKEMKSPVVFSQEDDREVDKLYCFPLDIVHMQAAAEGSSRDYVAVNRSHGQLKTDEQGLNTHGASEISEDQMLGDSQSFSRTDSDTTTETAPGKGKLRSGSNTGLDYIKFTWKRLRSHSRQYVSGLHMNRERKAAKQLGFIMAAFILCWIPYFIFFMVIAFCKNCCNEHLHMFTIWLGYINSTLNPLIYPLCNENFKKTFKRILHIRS
Give measured pKi for each item. Keep answers brief.
Answers are plain numbers, as −log10 of the molar value.

Before answering, review these 4 worked examples.
1) c1cc2c(cc1OCCCN1CCCCC1)CCN(CC1CC1)CC2	5.70
2) c1cc2c(cc1OCCCN1CCCCC1)CCNCC2	5.90
3) c1ccc(COc2ccc3c(c2)CCN(CC2CC2)CC3)cc1	6.00
4) c1cc2c(cc1OCCCN1CCCCC1)CCN(CC1CCCO1)CC2 (centres undefined)	5.70

# input for lookup
Record c1ccc(N2CCc3ccc(OCCCN4CCCCC4)cc3CC2)cc1 , field pKi: 6.00

----------
test: Lipophilicity, log D of the compound; type: physicochemical; details: octanol/water
observable: logD
Numbers only.

Record O=C(N1CCOCC1)N1CCC(Oc2ccc3c(c2)CCN(C2CCC2)CC3)CC1 , field logD: 2.2

----------
test system: Liver microsome; assay: Intrinsic clearance in rat liver microsomes; format: ADME
observable: CLH (mL/min/g)
Answers are plain numbers, in mL/min/g.

Provide the reported CLH of each entry below, same order.
1. Cc1cc(C(=O)N2CCC(Oc3ccc4c(c3)CCN(C3CCC3)CC4)CC2)no1
2. O=C(N1CCOCC1)N1CCC(Oc2ccc3c(c2)CCN(C2CCC2)CC3)CC1
3. O=C(c1ccc(Cl)cc1)N1CCC(Oc2ccc3c(c2)CCN(C2CCC2)CC3)CC1

Ans:
[3.5, 1.1, 2.9]

Provide the reported CLH of each entry below, same order.
1. CS(=O)(=O)N1CCC(Oc2ccc3c(c2)CCN(C2CCC2)CC3)CC1
2. c1cc2c(cc1OCC1CCNCC1)CCN(C1CCC1)CC2
3. Cn1c(=O)ccc2cc(COc3ccc4c(c3)CCN(C3CCC3)CC4)ccc21
4. c1cc2c(cc1OC1CCNCC1)CCN(C1CCC1)CC2

Ans:
[2.9, 0.7, 2.5, 1.2]

----------
tested on: Liver microsome; test: Intrinsic clearance in human liver microsomes; type: ADME
observable: CLH (mL/min/g)
Answers are plain numbers, in mL/min/g.

1) Cn1c(=O)ccc2cc(COc3ccc4c(c3)CCN(C3CCC3)CC4)ccc21	3.4
2) Cc1cc(C(=O)N2CCC(Oc3ccc4c(c3)CCN(C3CCC3)CC4)CC2)no1	1.2
3) c1ccc(COc2ccc3c(c2)CCN(C2CCCC2)CC3)cc1	19
4) O=C(c1ccc(Cl)cc1)N1CCC(Oc2ccc3c(c2)CCN(C2CCC2)CC3)CC1	0.8
5) CS(=O)(=O)N1CCC(Oc2ccc3c(c2)CCN(C2CCC2)CC3)CC1	0.5

Provide the reported CLH of each entry below, same order.
1. O=C(N1CCOCC1)N1CCC(Oc2ccc3c(c2)CCN(C2CCC2)CC3)CC1
2. c1cc2c(cc1OC1CCNCC1)CCN(C1CCC1)CC2
3. c1ccc(COc2ccc3c(c2)CCN(C2CCC2)CC3)cc1
4. c1cc2c(cc1OCC1CCNCC1)CCN(C1CCC1)CC2
5. c1ccc(COc2ccc3c(c2)CCN(CC2CC2)CC3)cc1

Ans:
1: 0.9; 2: 0.5; 3: 12; 4: 0.9; 5: 11

----------
experiment: Drug level in Lister Hooded rat blood at 3 mg/kg, po after 2 hrs; assay type: ADME, organism-based; set-up: dose 3 mg/kg, route oral; settings: whole blood, read-out: Ct
observable: concentration at 2 h (µM)
Answers are plain numbers, in µM.

Record O=C(N1CCOCC1)N1CCC(Oc2ccc3c(c2)CCN(C2CCC2)CC3)CC1 , field concentration at 2 h: 0.47

----------
target: Histamine H3 receptor (Homo sapiens, UniProt Q9Y5N1); test: Antagonist activity at human histamine H3 receptor expressed in CHOK1 cells assessed as inhibition of GTPgammaS binding by scintillation proximity assay; format: functional, cell-based, CHO-K1
Sequence (Q9Y5N1 whole entry): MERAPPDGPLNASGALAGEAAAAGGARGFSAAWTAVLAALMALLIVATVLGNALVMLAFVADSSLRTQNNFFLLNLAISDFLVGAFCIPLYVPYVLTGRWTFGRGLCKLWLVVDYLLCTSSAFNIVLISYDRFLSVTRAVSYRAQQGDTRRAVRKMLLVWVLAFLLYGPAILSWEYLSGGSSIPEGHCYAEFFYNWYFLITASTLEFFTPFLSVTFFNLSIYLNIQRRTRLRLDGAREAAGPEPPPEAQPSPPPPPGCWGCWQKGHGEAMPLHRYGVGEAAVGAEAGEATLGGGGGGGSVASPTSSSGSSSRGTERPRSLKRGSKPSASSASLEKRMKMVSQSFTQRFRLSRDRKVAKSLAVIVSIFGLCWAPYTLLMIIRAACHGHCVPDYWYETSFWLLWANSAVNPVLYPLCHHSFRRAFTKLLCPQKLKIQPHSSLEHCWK
observable: Ki (nM)
Numbers only, in nM.

Before answering, review these 3 worked examples.
1. c1cc2c(cc1OCCN1CCCCC1)CCNCC2	158
2. c1cc2c(cc1OCCCN1CCCCC1)CCN(CC1CCCO1)CC2 (stereo not drawn)	0.501
3. CN1CCc2ccc(OCc3ccccc3)cc2CC1	316

Query CN(C)CCCOc1ccc2c(c1)CCNCC2 on Histamine H3 receptor (Homo sapiens, UniProt Q9Y5N1); Ki returned: 100

----------
target: Histamine H1 receptor (Homo sapiens); assay: Antagonist activity at human recombinant histamine H1 receptor expressed in CHO cells assessed as inhibition of histamine-induced effect by FLIPR assay
observable: Ki

1. CC(C)N1CCC(Oc2ccc3c(c2)CCNCC3)CC1	> 2510 nM
2. O=C(c1ccc(OCCCc2cnc[nH]2)cc1)C1CC1	> 2510 nM
3. c1cc2c(cc1OCCN1CCCCC1)CCN(CC1CC1)CC2	> 2000 nM

# input for lookup
Record O=C(N[C@H]1CCN(Cc2ccc(OCCCN3CCCCC3)cc2)C1)c1ccc2c(c1)OCO2 , field Ki: > 2510 nM
